- experiment summary: chemical genetic growth profiling, strain panel (AID 1159580);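 also: tested at 20 µM; growth read once vehicle control cultures reached saturation at 30 °C; 1 = growth at the plate median or of vehicle wells; lower values mean less growth of the strain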
- assay conditions: S. cerevisiae deletion strains, growth OD, locus YOR061W, strain CKA2, hits give low values
Hit rate of the full screen: of about 5,500 compounds, about 2,000 (36%) were called active. Inconclusive results (about 18%) are left out. The list shows a part of the results.
measurement name: normalized growth
Just the number, please, no unit after it.

Consider the following illustrative entries.
CC(=O)O[C@@H]1CC2C(C)(C)[C@H](O)C[C@H](O)[C@]2(C)C2CC[C@@]3(C)[C@H](c4ccoc4)OC(=O)[C@H]4O[C@]43[C@@]21C (stereo not given in full) :: 0.939
CC[N+]1(C)CCCC(OC(=O)C(O)(c2ccccc2)c2ccccc2)C1 (stereo not given) :: 1.01
CC(=O)O[C@H]1C[C@H](O[C@H]2[C@@H](O)C[C@H](O[C@H]3[C@@H](O)C[C@H](O[C@H]4CC[C@@]5(C)C(CCC6C5C[C@@H](O)[C@]5(C)[C@@H](C7=CC(=O)OC7)CC[C@]65O)C4)O[C@@H]3C)O[C@@H]2C)O[C@H](C)[C@H]1O[C@@H]1O[C@H](CO)[C@@H](O)[C@H](O)[C@H]1O (stereo not given in full) :: 1.01
COc1ccc2cc3[n+](cc2c1OC)CCc1cc2c(cc1-3)OCO2 :: 0.378
CCC/C=C/C=C/[C@@H]1C[C@@H](O)[C@@H](O)C(=O)[C@H]1C=O :: 0.986

Can you share its normalized growth? I mean this compound: `Clc1ccccc1N/N=C\Cc1nnnn1-c1ccccc1`
0.567

Which normalized growth reading was recorded for the compound `COc1cccc(-c2cc(=O)c3cc(OC)ccc3o2)c1` ?
1
